# System: LP-1
# experimental details: Cell proliferation CellTiterGlo Ex.2
# Type: cell-based
# condition description: Homo sapiens; LP-1 (Blood), 72 h
assay readout: IC50 (µM)
One number for each entry, in µM.

Note to self: IC50 recorded for C#C[C@]1(CO)O[C@@H](n2cnc3c(=O)[nH]c(N)nc32)C[C@@H]1O [compound 13] was 3.15

* * *

# Tested on: THP-1
# experimental details: Cell proliferation Ex.3
# Type: cell-based
# condition description: Homo sapiens, THP-1, 168 h
assay readout: IC50

Note to self: IC50 recorded for C#C[C@]1(CO)O[C@@H](n2cc(F)c(N)nc2=O)C[C@@H]1O [compound 9] was > 10 µM

* * *

# Tested on: MDAMB436
# experimental details: Cell proliferation Ex.3
# Format: cell-based
# condition description: Homo sapiens, MDA-MB-436; MDAMB436, 168 h
pIC50: −log10 of the molar value.
assay readout: pIC50

Note to self: pIC50 recorded for C#C[C@]1(CO)O[C@@H](n2cc(F)c(N)nc2=O)C[C@@H]1O [compound 9] was < 5.00

* * *

# System: MHHES1
# experimental details: Cell proliferation Ex.3
# Type: cell-based
# condition description: Homo sapiens, MHH-ES-1; MHHES1, 168 h
pIC50: −log10 of the molar value.
assay readout: pIC50

pIC50 of C#C[C@]1(CO)O[C@@H](n2cc(F)c(N)nc2=O)C[C@@H]1O [compound 9] , assay on MHHES1, is < 5.00

* * *

# Test system: MDA-MB-468
# experimental details: Cell proliferation CellTiterGlo Ex.2
# Type: cell-based
# condition description: Homo sapiens; MDA-MB-468 (Breast), 72 h
pIC50: −log10 of the molar value.
assay readout: pIC50

Note to self: pIC50 recorded for C#C[C@]1(CO)O[C@@H](n2cnc3c(=O)[nH]c(N)nc32)C[C@@H]1O was < 5.00

* * *

# System: cancer cell lines
# experimental details: Cancer cell proliferation activity of representative nucleosides, CellTiterGlo 72 h (Example 7, Tables 8 and 9)
# Assay type: cell-based
# condition description: Homo sapiens, SK-N-AS, 72 h, SKNAS, 72 h (Table 9)
What pIC50 was measured for each of the following?
One number for each entry, as −log10 of the molar value.

compound	pIC50
Nc1ccn([C@H]2C[C@H](O)[C@](CO)(CF)O2)c(=O)n1 [compound 32]	5.91

Now consider the entry below.
Note to self: pIC50 recorded for C#C[C@]1(CO)O[C@@H](n2cnc3c(N)nc(F)nc32)C[C@@H]1O [Islatravir (EFdA), Islatravir, reference compound] was 5.53

* * *

# System: cancer cell lines
# experimental details: Cancer cell proliferation activity of representative nucleosides, CellTiterGlo 72 h (Example 7, Tables 8 and 9)
# Format: cell-based
# condition description: Homo sapiens, COLO 205, 72 h, COLO205, colon, 72 h
What IC50 was measured for each of the following?
Give bare numbers, in nM.

compound	system name	value units	IC50
N#C[C@]1(CO)O[C@@H](n2ccc(N)nc2=O)C[C@@H]1O [compound 29]	cancer cell lines	nM	160
CC[C@]1(CO)O[C@@H](n2ccc(N)nc2=O)C[C@@H]1O [compound 21]	cancer cell lines	nM	3440

IC50 of C[C@]1(CO)O[C@@H](n2ccc(N)nc2=O)C[C@@H]1O [compound 30] , assay on cancer cell lines, is 160
